molecular target: 5-hydroxytryptamine receptor 1B (Rattus norvegicus); format: cell membranes, Wistar, Cerebral cortex, Membrane; conditions: read-out: Ki
Sequence (P28564 whole entry): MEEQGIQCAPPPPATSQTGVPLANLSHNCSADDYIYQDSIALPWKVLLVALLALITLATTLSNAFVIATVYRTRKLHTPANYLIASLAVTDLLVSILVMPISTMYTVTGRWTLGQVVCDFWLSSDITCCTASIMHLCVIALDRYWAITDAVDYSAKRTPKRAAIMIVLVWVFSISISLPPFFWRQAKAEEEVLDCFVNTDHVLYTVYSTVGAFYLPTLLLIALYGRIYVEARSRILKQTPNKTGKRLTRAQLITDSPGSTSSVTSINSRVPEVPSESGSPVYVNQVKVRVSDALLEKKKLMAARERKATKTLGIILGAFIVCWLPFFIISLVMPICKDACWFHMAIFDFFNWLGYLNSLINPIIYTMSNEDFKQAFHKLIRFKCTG
Listed next: entries and their corresponding Ki.
Experimental endpoint: Ki (nM)

| Molecule | Experimental system | Experimental endpoint | Number |
| --- | --- | --- | --- |
| CC(C)C[C@H]1C(=O)N2CCC[C@H]2[C@]2(O)O[C@](NC(=O)[C@@H]3C=C4c5cccc6[nH]cc(c56)C[C@H]4N(C)C3)(C(C)C)C(=O)N12 | 5-hydroxytryptamine receptor 1B (Rattus norvegicus) | Ki | 5.02 |
| Clc1ccc(COC(Cn2ccnc2)c2ccc(Cl)cc2Cl)c(Cl)c1 (stereo not drawn) | 5-hydroxytryptamine receptor 1B (Rattus norvegicus) | Ki | 9360 |
| CN(C)CCC=C1c2ccccc2CCc2ccccc21 | 5-hydroxytryptamine receptor 1B (Rattus norvegicus) | Ki | 1690 |
